assay: yeast display, Sf9 membrane polyspecificity reagent, FACS + sequencing; frameworks hold sequencing errors
readout.name: polyreactivity (PSR sort gate)

// below: answered sequences
>>> value_observed("QVQLEDSGGGLVQAGGSLRLSCAASGRTFPYKAMGWYRQAPGKERELVAAITSSGGSTYYADSVKGRFTISRDNAKNTVYLQMNSLKPEDTAVYYCAKGYYSPNYYYWGQGTQVTVSS")
"high polyreactivity"
>>> value_observed("QVQLVESGGGLVQAGGSLRLSCAASGYIFLWYAMGWYRQAPGKERELVASISSGSTYYADSVKGRFTISRDNAKNTVYLLMNSLKPEDTAVYYCAAGWFASDYYYWGQGTQVTVSS")
"low polyreactivity"
>>> value_observed("QVQLVESGGGLVQAGGSLRLSCAASGFIFAKYAMGWYRQAPGKEMELVAAITSGGSTNYADSVKGRFTISRDNAKNTVYLQMNSLKPDDTAVYYCNRGFDWWYRYRHYDYWGQGTQVTVSS")
"low polyreactivity"
>>> value_observed("QVQLVESGGGLVQAGGRLRLSCAASGITFFWNAMGWYRQAPGKERELVAAISSGAGTTYADSVKGRFTISRDNAKNTVYLQMNSLKPEDTAVYYCAKRVDAYGWWGRSSGVLSDYWGQGTQVTVSS")
"low polyreactivity"

Q. Suppose we examine the sequence `QVQLVESGGGLVQAGGSLRLICDASGSIFEDYTMGWYRPGPGKERELVAASSRSGVRKYYADSVKGLFTISRDNAKNTVNLQMNSLKPEDTGVYYCARTRVASKGYDYWGQGTQVTVSS` ; what polyreactivity (PSR sort gate) value has been reported?
A. high polyreactivity

====

assay: yeast display, Sf9 membrane polyspecificity reagent, FACS + sequencing; frameworks hold sequencing errors
readout.name: polyreactivity (PSR sort gate)

>>> value_observed("QGQLVESGGGLVQAGGILRLSCAASGIIFCRYAMGWYRQAPGKERELVATITWRGGSTYYADSVKARFTNSRDNAKNTVYLQMNSLKPEDTAVYSSAADTRPSRSFRARDYWGQGTQVTVSS")
"low polyreactivity"
>>> value_observed("QVQLVESGGGLVQAGGSLRLSCAASGFTFVGNAMGWYRQAPGKERELVATITSGGNTKYADSVKGRFTISRDNAKNTVYLQMNSLKPEDTAVYYCAAAKYNYRRFNYWGQGTQVTVSS")
"low polyreactivity"
>>> value_observed("QVQLVESGGGLVQAGGSLRLSCAASGSTSVYYAMGWYRQAPGKERELVAAITSGGRTYYADSVKGRFTISRDNAKNTVYLQMNSLKPEDTAVYYCNKGLYYFLPTKFRLDYWGQGTQVTVSS")
"high polyreactivity"
>>> value_observed("QVQLVESGGGLVQAGGSLRLSCAASGSIFHSYAMGWYRQAPGKEREFVASITQRVGRTNYADSVKGRFTISRDNAKNTVYLQMISLKPEDTAVYYCAASSWRLYYRRDSWGQGTQVTVSS")
"high polyreactivity"

====

experiment: yeast display, Sf9 membrane polyspecificity reagent, FACS + sequencing; frameworks hold sequencing errors
readout.name: polyreactivity (PSR sort gate)

Example sequences with recorded polyreactivity (PSR sort gate):
>>> value_observed("QVQLVESGGGLVQAGGSLRLSCAASGRIIWSNTMGWYRQAPGKESELVAASSGRGGSTYYADSVKGRFTISRDNAKNTVYLQMNSLKPEDTAVYYCAAKPTRSRKIYEYWGQGTQVTVSS")
"low polyreactivity"
>>> value_observed("QVPLVESGGGLVQAGVSLRLSCAASGSIFYLYAMGWYRQAPGKERELVAAISRSGASTYYADSVKGRFTISRDNAKNTVYLQMNSQKPEDTAVYYCAAYKIWGRVRYDYWGQGTQVTVSS")
"low polyreactivity"
>>> value_observed("QVQIVETGGGLVQAGGSLGLSCAASGSNFGGNTMPCYRQAPGIERALVAAISRSGGSTYYADSVKGRFTISRDIAQNSVYVQMNSLKPEDTAVYYCNRKQAGQAQGYDYWGLGTQVTVSS")
"high polyreactivity"
>>> value_observed("QVQLVESGGGLVQGGGSLRLSCAASGFIFDDNSMGWYRQAPGKERELVAAITSGGGSTYYADSVKGRFTISRDNAKNTVYLQMNSLKPEDTAVYYCNAVPSQHDEFDYWGQGTQVTVSS")
"low polyreactivity"
>>> value_observed("QVQLVESGGGLVQAGGSLRLSCAASGSTFKRYAMGWYRQAPGKERELVAAISSGGTTNYADSVKGRFTISRDNAKNTVYLQMNSLKPEDTAVYYCNRKFRYSSHTNYYYWGQGTQVTVSS")
"high polyreactivity"
>>> value_observed("QVQLVESGGGLVQAGGSLRLSCAASGFIFPGNTMGWYRQAPGKERELVAAITRSGASTYYADSVKGRFTISRDNAKNTVYLQMNSLKPEDTAVYYCAERYYYGLRYPDYYYWGQGTQVTVSS")
"high polyreactivity"

Q. Request the reported polyreactivity (PSR sort gate) associated with `QVQLVESGGGLVQAGGSLRLSCAASGSTFYVNTMGWYRQAPGKERELVAAISGSGGSTYYADSVKGRFTISRDNAKNTVYLQMNSLKPEDTAVHYCAARSRYGYITFDYWGQGTQVTVSS`
A. high polyreactivity

Q. Suppose we examine the sequence `QVQLVESGGGLVQAGGSLRLSCAASGSTLYRYAMGWYRQAPGKERELVAAISSAGSTHYADSVKGRFTISRDNAKNTVYLQMNSLKPEDTAVYYCAAKRYLKYGYWGQGTQVTVSS` ; what polyreactivity (PSR sort gate) value has been reported?
A. high polyreactivity

Q. # polyreactivity (PSR sort gate) lookup, item `QVQLVESGGGLVQAGGSLRLSCAASGSIFDAYAMGWYRQATGKERELVAAITYSGGSTYYADSVKGRFTISRDNAKNTVYLQMNSLKPEDTAVYYCNTDSRVRTWFRAFTYDSWGQGTQVTVSS`
A. low polyreactivity

Q. Can you look up the measured polyreactivity (PSR sort gate) of `QVQLVESGGGLVQAGGSLRLSCSASGSIFKRNAMGWYRQAPGKERELVAAITTRGGRTYYADSVKGRFTISRDNAKNTVYLQLNSLKPEDTAVYFCAVVPAAGSGGYGYSRYDYWGQGSQVTVSS` for me?
A. high polyreactivity

Q. Can you share its polyreactivity (PSR sort gate)? I mean this sequence: `QGQLVESGGGLVQAGGSLRLSCAAYGRIFYVYAMGWYRQAPGKERELVATITSSGDGTYYADSVKGRFTISRDNAKNTGYLQMNSLIPEDTAVYYCAARSWPYSQTGKRFVEYYYWGQGTQVSVSS`
A. low polyreactivity

Q. Form field: reported polyreactivity (PSR sort gate) of `QVQLVESGGGLLQAGGSLRLSCAASGSTFNKYTMGWYIKAPGKERELVAAITSGDSTYYADSVKGRFTISRDNAKYTVYLQMNSLKTEDTAVYYCAKSLRAYRHVIYGKPFYSWGQGTQVTVSS`
A. low polyreactivity

====

assay: yeast display, Sf9 membrane polyspecificity reagent, FACS + sequencing; frameworks hold sequencing errors
readout.name: polyreactivity (PSR sort gate)

>>> value_observed("QVQLVESGGGLVQAGGSLRLSCAASGLIFGPYAMGWYRQAPGKERELVAAITSSGGSTYYADSVKGRFTISRDNAKNTVYLQMNSLKPEDTAVYSCAARGSPRYYARYNYWGQGTQVTVSS")
"low polyreactivity"
>>> value_observed("QVQLVESGGGLVQAGGSLRLSCAASGFIFHVYAMGWYRQAPGKEREFVAGISWRGGRTYYADSVKGRFTISRDNAKNTVYLLMNSLKPEDTAVYYCAALGLNAGGKFDYWGQGTQVTVSS")
"high polyreactivity"
>>> value_observed("QVQLVESGGGLVQAGGSLRLSCAASGLTFSRYAMGWYRQAPGKERELVAAISGSGGSTYYADSVKGRFTISRDNAKNTVYLQMNSLKPEDTAVYYCNKYRATNSARDYWGQGTQVTVSS")
"high polyreactivity"
>>> value_observed("QVQLVESGGGLVQAGGSLRLSCAASGRTLRQYAMGRYRQAPGKERELVAAISRGGSTTYADSVKGRFTISRDNAKNTVYLQMNSLKPEDTAVYYCNAELNWYYYIHLDYWGQGTQVTVSS")
"low polyreactivity"

Q. State the recorded polyreactivity (PSR sort gate) for this entry: `QVQIVESGGGLVQAGGSLRLSCAASGFIFGPYAMGWYRQAPGKERELVAAMSRSGGDTYYADSVKGRFTISRDFEKNTVYLQMNSLKPEDTAVYYCAAVGKYSAYNYWGQGTQVTVSS`
A. high polyreactivity

Q. Entry `QVQLVESGGGLVQAGGSLRLSCAASGSSFDWNAMGWYRQAPGKERELVASITGSGGGTNYADSVKGRFTISRDNAKNTVYLQMNSLKPEDTAVYYCNADGLNFDGHEYWGQGTQVTVSS` : reported polyreactivity (PSR sort gate) = ?
A. low polyreactivity

Q. I would be grateful if you could share the reported polyreactivity (PSR sort gate) for `QVQLVEYWGALVQAGGTLRLSCAASGRIFGTNALAWNRQAPGKERELEATITRGGGNTYYADSVKGRFTISRDKAKYTVYLQMNSLKPEDTAVYYCAAKFHRFAWYSHYDDWGQGSQVTVSS` .
A. low polyreactivity

Q. Need polyreactivity (PSR sort gate) of `QVQLVESGGGLVQAGGSLRLSCADSGFIFYFYTKGCYIQSPGKDRELVSGITWLDGSTYYADSVKGRFTISRDNAKNTVYLQMNSLKPEDTAVYYCNRDQWPWESGYAYNYWGQGTQVTVSS` , thanks.
A. low polyreactivity

Q. Need polyreactivity (PSR sort gate), item `QVQLVESGGALVQAGGSLRLSCAASGFIFYSYAMGWYRHAPGKETELVAAITEDGDSTYYADSVKGRFTISRDNAKNTVYLQMNSLKPEDSAVYYCNTDLTFNGTSGDYDYWGQGTLVTVSS`
A. low polyreactivity

Q. Suppose we examine the sequence `QVQLVESGGGLVQAGGSLRLSCAASGRTFLANAMGWYRQAPGKERELVAAITWSGGRTNYADSVKGRFTISRDNAKNTVYLQMNSLKPEDTAVYYCAADIFYEQVVGGTDVGYHDFDYWGQGTQVTVSS` ; what polyreactivity (PSR sort gate) value has been reported?
A. low polyreactivity

Q. Using the record for `QVQLVESGGGLVQAGGSLRLSCAASGGIFDTYAMGWYRQAPGKERELVAAISANGGETYYADSVKGRFTISRDNAKTTVYLQMNSLKPEDTAVYYCAADGFLPILHPVPWSYYYPFGYWGQGTQVTVSS` , report its polyreactivity (PSR sort gate).
A. low polyreactivity

Q. Suppose we examine the sequence `QVQLVESGGGLVQAGGSLRLSCAASGSILVNMGWSRQAPAKERELVAAIRYGGGRTYYADSVKGRFTISRDNAKNTVYLQMNSLKPEDTEVYYCAKKYIWVWAPAKQYGFDSWGQGTQVTVSS` ; what polyreactivity (PSR sort gate) value has been reported?
A. low polyreactivity
